Hey, just so you know, these numbers are from the supplement of paper PMC13207355.

Measured surviving fraction by item
- Test system: E57 (patient-derived glioblastoma stem cells of mesenchymal subtype);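 note: nuclei counted by high-content imaging of Hoechst-stained cells in laminin-coated 384-well plates, relative to 0.1% DMSO vehicle wells, with staurosporine as cell-death control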
- Assay method text: surviving fraction (nuclei count normalised to DMSO); higher = more cells surviving (less toxic)
- Condition details: 3000 nM; exposure time: 72 h
Counter-ions that a name gives are not always drawn.
Property name: surviving fraction

>>> endpoint_result("C=CC(=O)Nc1cccc(Oc2nc(Nc3ccc(N4CCN(C)CC4)cc3)nc3ccsc23)c1 [Olmutinib]")
0.585
>>> endpoint_result("COC(=O)Nc1nc2cc(C(=O)c3cccs3)ccc2[nH]1 [Nocodazole]")
0.104
>>> endpoint_result("CCN(CC)CCCC(C)Nc1c2ccc(Cl)cc2nc2ccc(OC)cc12 (centres undefined) [Quinacrine dihydrochloride hydrate]")
1.04
>>> endpoint_result("O=C1CC[C@@H](C(=O)N2CSC[C@H]2C(=O)O)N1 [Pidotimod]")
1.03
